The measured values listed here are drawn from paper PMC4923194.

target: PduO C-terminal domain (PduOC) (Salmonella enterica, UniProt A0A0F6B395)
pKd: −log10 of the molar value.

[
  {
    "Chemical Structure": "C=CC1=C(C)C2=Cc3c(C=C)c(C)c4[n]3[Fe][n]3c(c(C)c(CCC(=O)O)c3=CC3=NC(=C4)C(C)=C3CCC(=O)O)=CC1=N2",
    "pKd": 6.80
  }
]
